# System: DU-145
# procedureSummary: Cytotoxicity against human DU145 cells after 48 hrs by SRB assay
# Assay type: functional, cell-based
# measurementSetup: Homo sapiens, DU-145, 48 h; read-out: LC50 (the source's name)
Entries and their measured CC50 follow.
measurementType: CC50

smilesInput: C/C=C1\NC(=O)[C@H](Cc2ccccc2)NC(=O)[C@@H](C(C)C)NC(=O)[C@@H]([C@H](C)CC)NC(=O)[C@H](NC(=O)[C@H](NC(=O)[C@H](CCCN)NC(=O)[C@H]2CCCN2C(=O)[C@H](NC(=O)[C@@H](NC(=O)[C@@H](NC(=O)[C@@H](C(C)C)N(CCCCCC)CCCCCC)[C@@H](C)O)C(C)C)C(C)C)[C@H](C)CC)[C@H](C)OC(=O)[C@H](C(C)C)NC1=O
assayedTarget: DU-145
measValue: 2.28 µM
--
smilesInput: CC[C@@H](C)[C@@H](NC(=O)[C@H](CCCN)NC(=O)[C@H]1CCCN1C(=O)[C@H](NC(=O)[C@@H](NC(=O)[C@@H](NC(=O)[C@H](NC(=O)CCCC(C)C)C(C)C)[C@@H](C)O)C(C)C)C(C)C)C(=O)N[C@H]1C(=O)N[C@H]([C@H](C)CC)C(=O)N[C@H](C(C)C)C(=O)N[C@@H](Cc2ccccc2)C(=O)NCC(=O)N[C@@H](C(C)C)C(=O)O[C@H]1C
assayedTarget: DU-145
measValue: 0.953 µM

Where these numbers come from: ChEMBL document CHEMBL1156597
